Experiment: Antiplatelet aggregation activity against adenosine diphosphate-induced human platelet rich plasma assessed as inhibition of platelet aggregation by turbidimetric method
Assay type: functional
Settings: Homo sapiens, Platelet, Plasma
API: label(entry) gives MET if the entry's IC50 is strictly smaller than 5000 nM; on equality or larger values it gives NOT MET.

CCCCOC(=O)N1CCN(C(=O)[C@H](CCC(=O)O)NC(=O)c2cc(OCCO)cc(-c3ccccc3)n2)CC1 : NOT MET
CCCCCCOC(=O)N1CCN(C(=O)[C@H](CCC(=O)O)NC(=O)c2cc(N3CCC(N)CC3)cc(-c3ccccc3)n2)CC1 : MET

Task item: For "CCCCOC(=O)N1CCN(C(=O)[C@H](CCC(=O)O)NC(=O)c2cc(OC3CCN(C(=O)C(F)(F)F)CC3)cc(-c3ccccc3)n2)CC1" , is the recorded IC50 below the cut-off of 5000 nM?
Reply: MET

Task item: What do we get for "CCCNC(=O)N1CCN(C(=O)[C@H](CCC(=O)O)NC(=O)c2cccc(-c3ccccc3)n2)CC1" ?
Reply: NOT MET

Task item: What do we get for "CCCCCOC(=O)N1CCN(C(=O)[C@H](CCC(=O)O)NC(=O)c2cc(NC(=O)N3CCC(OC)CC3)cc(-c3ccccc3)n2)CC1" ?
Reply: NOT MET

Task item: What do we get for "CCCCCOC(=O)N1CCN(C(=O)[C@H](CCC(=O)O)NC(=O)c2cc(C(=O)NCCCOC)cc(-c3ccccc3)n2)CC1" ?
Reply: MET

Task item: What do we get for "CC(C)CCOC(=O)N1CCN(C(=O)[C@H](CCC(=O)O)NC(=O)c2cccc(-c3ccccc3)n2)CC1" ?
Reply: NOT MET

Task item: What do we get for "CCCNc1cc(C(=O)N[C@@H](CCC(=O)O)C(=O)N2CCN(C(=O)OCC)CC2)nc(-c2ccccc2)c1" ?
Reply: NOT MET

Task item: What do we get for "CCCCOC(=O)N1CCN(C(=O)[C@H](CCC(=O)O)NC(=O)c2cc(OCCC3CCNCC3)cc(-c3ccccc3)n2)CC1" ?
Reply: MET

Task item: What do we get for "CCCCCOC(=O)N1CCN(C(=O)[C@H](CCC(=O)O)NC(=O)c2cc(OCC3CCN(CCOC)CC3)cc(-c3ccccc3)n2)CC1" ?
Reply: MET

Task item: What do we get for "CCCCOC(=O)N1CCN(C(=O)[C@H](CCC(=O)O)NC(=O)c2cc(OCC3CCN(CCOC)CC3)cc(-c3ccccc3)n2)CC1" ?
Reply: MET

Task item: What do we get for "CCCCCOC(=O)N1CCN(C(=O)[C@H](CCC(=O)O)NC(=O)c2cc(NC(=O)NC(C)C)cc(-c3ccccc3)n2)CC1" ?
Reply: NOT MET

Task item: What do we get for "CCCCOC(=O)N1CCN(C(=O)[C@H](CCC(=O)O)NC(=O)c2cc(OCC3CCOCC3)cc(-c3ccccc3)n2)CC1" ?
Reply: MET

Task item: What do we get for "CCCCCCOC(=O)N1CCN(C(=O)[C@H](CCC(=O)O)NC(=O)c2cc(OCC3CCNCC3)cc(-c3ccccc3)n2)CC1" ?
Reply: MET

Task item: What do we get for "CCCCCOC(=O)N1CCN(C(=O)[C@H](CCC(=O)O)NC(=O)c2cc(CCCO)cc(-c3ccccc3)n2)CC1" ?
Reply: MET

Task item: What do we get for "CCCCOC(=O)N1CCN(C(=O)[C@H](CCC(=O)O)NC(=O)c2cc(N3CCC(N(C)C)CC3)cc(-c3ccccc3)n2)CC1" ?
Reply: MET
